- System: Rattus norvegicus
- experimental details: In vivo antipsychotic activity measured by the induction of catalepsy in rats after po administration.
- Type: functional
Assign ED50 to each entry below.
Give bare numbers, in mg/kg.

O=c1ccoc2cc(OCCCN3CCC(c4noc5cc(F)ccc45)CC3)ccc12
12.6
Cc1coc2cc(OCCCN3CCC(c4noc5cc(F)ccc45)CC3)ccc2c1=O
2.85
O=C(CCCN1CCC(O)(c2ccc(Cl)cc2)CC1)c1ccc(F)cc1 [HALOPERIDOL]
2

Record ED50 for all entries; do not skip any.
1. COCc1coc2cc(OCCCN3CCC(c4noc5cc(F)ccc45)CC3)ccc2c1=O
2. Cc1nc2n(c(=O)c1CCN1CCC(c3noc4cc(F)ccc34)CC1)CCCC2 [RISPERIDONE]
3. O=c1c(CO)coc2cc(OCCCN3CCC(c4noc5cc(F)ccc45)CC3)ccc12 [ABAPERIDONE]
4. O=C(c1ccc(F)cc1)C1CCN(CCCOc2ccc3c(=O)c(CO)coc3c2)CC1

Result:
6.88
5
8.48
13
